System: Mus musculus
Assay: Toxicity in Mus musculus Swiss albino (mouse) assessed as vertical locomotor activity at 100 mg/kg, ip
Type: organism-based
Design: dose 100 mg/kg, route intraperitoneal
Settings: in vivo
ENDPOINT_NAME: Activity

In the examples that follow, each entry is paired with its recorded Activity.
>>> print(df.to_string())
                                   compound  meas_value
0  Nn1c(CCc2ccc(O)cc2)nnc1SCC(=O)N1N=C(c2cccs2)CC1c1ccccc1 (stereo unspecified)   Non-toxic
1  Cc1ccc(C2CC(c3cccs3)=NN2C(=O)CSc2nnc(CCc3ccc(O)cc3)n2N)cc1 (stereo unspecified)   Non-toxic
2  Nn1c(CCc2ccc(O)cc2)nnc1SCC(=O)N1N=C(c2cccs2)CC1c1ccc(F)cc1 (stereo unspecified)   Non-toxic
3  Nn1c(CCc2ccc(O)cc2)nnc1SCC(=O)N1N=C(c2cccs2)CC1c1ccc(Cl)cc1 (stereo unspecified)   Non-toxic
4  CN(C)c1ccc(C2CC(c3cccs3)=NN2C(=O)CSc2nnc(CCc3ccc(O)cc3)n2N)cc1 (stereo unspecified)   Non-toxic

--- query ---
Task: Reported Activity for Nn1c(CCc2ccc(O)cc2)nnc1SCC(=O)N1N=C(c2cccs2)CC1c1ccc2c(c1)OCO2 (stereo unspecified) : what is it?
Output: Non-toxic

# credit: ChEMBL document CHEMBL3046596
